Values from patent US20210238260

- tested-system: Factor X, P00742
- Sequence (P00742 whole entry, looked up): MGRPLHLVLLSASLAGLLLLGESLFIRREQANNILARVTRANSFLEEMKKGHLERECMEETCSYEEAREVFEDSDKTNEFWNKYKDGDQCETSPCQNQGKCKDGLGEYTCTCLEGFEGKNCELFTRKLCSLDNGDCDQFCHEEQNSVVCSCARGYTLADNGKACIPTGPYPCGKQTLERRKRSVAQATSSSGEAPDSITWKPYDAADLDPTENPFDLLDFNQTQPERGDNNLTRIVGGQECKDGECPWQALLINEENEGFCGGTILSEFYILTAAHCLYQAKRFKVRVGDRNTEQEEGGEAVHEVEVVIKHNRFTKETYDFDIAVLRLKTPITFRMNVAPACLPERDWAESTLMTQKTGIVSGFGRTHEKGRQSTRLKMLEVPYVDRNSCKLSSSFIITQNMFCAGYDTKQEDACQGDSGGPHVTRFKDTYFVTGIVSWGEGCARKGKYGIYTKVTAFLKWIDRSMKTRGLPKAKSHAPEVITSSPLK
test-readout: kcat (s⁻¹)
Answers are plain numbers, in s⁻¹.

### Prompt GET /values?readout=kcat&item= FIXa-R318Y/T343R/R403E/E410N (protein) chain 1: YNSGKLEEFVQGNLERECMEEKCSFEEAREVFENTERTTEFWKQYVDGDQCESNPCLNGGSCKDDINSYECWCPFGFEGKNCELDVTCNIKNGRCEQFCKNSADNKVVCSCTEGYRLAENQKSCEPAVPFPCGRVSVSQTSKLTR chain 2: VVGGEDAKPGQFPWQVVLNGKVDAFCGGSIVNEKWIVTAAHCVETGVKITVVAGEHNIEETEHTEQKRNVIRIIPHHNYNAAINKYNHDIALLELDEPLVLNSYVTPICIADKEYTNIFLKFGSGYVSGWGRVFHKGYSALVLQYLRVPLVDRATCLRSTKFRIYNNMFCAGFHEGGRDSCQGDSGGPHVTEVEGTSFLTGIISWGEECAMKGKYGIYTKVSEYVNWIKNKTKLT
### Response 5.3
